test system: 439559-082-T-J2-PDC spheroid viability; assay: Anticancer human tumor 439559-082-T-J2-PDC patient-derived colon adenocarcinoma cell line growth inhibition [POLQ]; conditions: second compound 3.16 µM; first compound 0.316 µM; stronger effect = lower value; spheroids with HUVEC and MSC
assayReadout: viability, T/C (%)
Write the answer as a number in %, unit excluded.

COc1cccc(OCCCN)c1-c1cc(Nc2cnc(C#N)cn2)n[nH]1 + COC1C(OC(N)=O)C(O)C(Oc2ccc3c(O)c(NC(=O)c4ccc(O)c(CC=C(C)C)c4)c(=O)oc3c2C)OC1(C)C : 30.9
O=c1[nH]cc(F)c(=O)[nH]1 + Cc1cccc(N(C)C(=O)C2C(O)CCN2c2nc(C)cc(C(F)(F)F)c2C#N)c1 : 84.5
Nc1ccn(C2OC(CO)C(O)C2(F)F)c(=O)n1 (configuration not stated) + Nc1ccc(C#CCN(C(=O)Cc2ncc(C(F)(F)F)cc2C(F)(F)F)c2ccc(F)cc2)nn1 : 62.9

Endpoint output: viability, T/C of COc1cc2cc(C(=O)CCC(=O)O)sc2cc1OC + COC1C(OC(N)=O)C(O)C(Oc2ccc3c(O)c(NC(=O)c4ccc(O)c(CC=C(C)C)c4)c(=O)oc3c2C)OC1(C)C . Value? 84.7

Endpoint output: viability, T/C of COc1cccc(OCCCN)c1-c1cc(Nc2cnc(C#N)cn2)n[nH]1 + Cc1cccc(N(C)C(=O)C2C(O)CCN2c2nc(C)cc(C(F)(F)F)c2C#N)c1 . Value? 48.1

Endpoint output: viability, T/C of O=C(c1cc(Cc2n[nH]c(=O)c3ccccc23)ccc1F)N1CCN(C(=O)C2CC2)CC1 + Nc1ccc(C#CCN(C(=O)Cc2ncc(C(F)(F)F)cc2C(F)(F)F)c2ccc(F)cc2)nn1 . Value? 98.3

Endpoint output: viability, T/C of O=C(Nc1ccc(O)c(NS(=O)(=O)c2ccc(F)cc2)c1)c1ccc(-c2ccccc2)cc1 + Nc1ccc(C#CCN(C(=O)Cc2ncc(C(F)(F)F)cc2C(F)(F)F)c2ccc(F)cc2)nn1 . Value? 100

Endpoint output: viability, T/C of CCCS(=O)(=O)Nc1ccc(F)c(C(=O)c2c[nH]c3ncc(-c4ccc(Cl)cc4)cc23)c1F + Nc1ccc(C#CCN(C(=O)Cc2ncc(C(F)(F)F)cc2C(F)(F)F)c2ccc(F)cc2)nn1 . Value? 103

----------
system: 439559-082-T-J2-PDC spheroid viability; assay: Anticancer human tumor 439559-082-T-J2-PDC cell line growth inhibition [POLQ]; details: second compound 0.0316 µM; first compound 0.00316 µM; stronger effect = lower value; spheroids with HUVEC and MSC;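 note: spheroids exposed to compounds for seven days before readout; 100% = DMSO vehicle control viability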
assayReadout: viability, T/C (%)
Write the answer as a number in %, unit excluded.

Past entries and their recorded results:
COc1cccc(OCCCN)c1-c1cc(Nc2cnc(C#N)cn2)n[nH]1 + COC1C(OC(N)=O)C(O)C(Oc2ccc3c(O)c(NC(=O)c4ccc(O)c(CC=C(C)C)c4)c(=O)oc3c2C)OC1(C)C : 87
COc1cccc(OCCCN)c1-c1cc(Nc2cnc(C#N)cn2)n[nH]1 + Nc1ccc(C#CCN(C(=O)Cc2ncc(C(F)(F)F)cc2C(F)(F)F)c2ccc(F)cc2)nn1 : 105
CCc1c2c(nc3ccc(O)cc13)-c1cc3c(c(=O)n1C2)COC(=O)[C@]3(O)CC + Nc1ccc(C#CCN(C(=O)Cc2ncc(C(F)(F)F)cc2C(F)(F)F)c2ccc(F)cc2)nn1 : 102

Consider the additional compound presented here.
Endpoint output: viability, T/C of Cn1ncnc1[C@H]1c2n[nH]c(=O)c3cc(F)cc(c23)N[C@@H]1c1ccc(F)cc1 + COC1C(OC(N)=O)C(O)C(Oc2ccc3c(O)c(NC(=O)c4ccc(O)c(CC=C(C)C)c4)c(=O)oc3c2C)OC1(C)C . Value? 102
